SYSTEM UNDER TEST: TgLaforin (Toxoplasma gondii, UniProt S8F2K7)
TEST NAME: Radiolabeled (33P) starch phosphatase assay
Format: biochemical
ASSAY CONDITIONS: 33P-labeled insoluble starch, C3; read-out: IC50 phosphate release from C3 position of starch
pIC50: −log10 of the molar value.
EXPERIMENTAL ENDPOINT: pIC50

> print(dat)
                                   molecule  result.number
1  O=C(Nc1ccc(Oc2ccccc2)cc1)C(=O)Nc1ccccc1NC(=O)C(c1ccccc1)S(=O)(=O)O (stereo not shown)           5.17

---

SYSTEM UNDER TEST: TgLaforin (Toxoplasma gondii)
Sequence (S8F2K7 1-523): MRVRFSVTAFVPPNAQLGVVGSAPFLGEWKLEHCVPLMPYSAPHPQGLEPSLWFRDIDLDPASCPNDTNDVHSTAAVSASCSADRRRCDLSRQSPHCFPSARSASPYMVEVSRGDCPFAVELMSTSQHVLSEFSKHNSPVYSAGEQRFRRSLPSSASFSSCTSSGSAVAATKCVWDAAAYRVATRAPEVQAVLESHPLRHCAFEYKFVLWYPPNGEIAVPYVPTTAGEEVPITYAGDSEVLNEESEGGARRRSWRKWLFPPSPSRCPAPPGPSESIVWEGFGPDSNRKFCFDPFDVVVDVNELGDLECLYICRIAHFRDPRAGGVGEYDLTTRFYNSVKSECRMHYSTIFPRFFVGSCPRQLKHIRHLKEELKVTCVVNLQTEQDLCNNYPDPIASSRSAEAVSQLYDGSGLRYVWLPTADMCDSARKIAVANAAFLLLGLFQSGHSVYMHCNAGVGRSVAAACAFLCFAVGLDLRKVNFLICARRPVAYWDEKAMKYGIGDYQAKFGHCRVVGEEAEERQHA
TEST NAME: Malachite green phosphatase assay, phosphate release from solubilized potato amylopectin
Format: biochemical
EXPERIMENTAL ENDPOINT: IC50 (µM)

> print(dat)
                                   compound  result.number
1  O=C(Nc1ccc(Oc2ccccc2)cc1)C(=O)Nc1ccccc1NC(=O)C(c1ccccc1)S(=O)(=O)O (stereo not shown)            5.1

---

SYSTEM UNDER TEST: TgLaforin (Toxoplasma gondii)
TEST NAME: pNPP phosphatase assay
EXPERIMENTAL ENDPOINT: IC50 (nM)

> print(dat)
                                   compound  units.label  result.number
1  O=C(Nc1ccc(Oc2ccccc2)cc1)C(=O)Nc1ccccc1NC(=O)C(c1ccccc1)S(=O)(=O)O (stereo not shown)           nM           1500

---

SYSTEM UNDER TEST: TgLaforin (Toxoplasma gondii)
TEST NAME: Radiolabeled (33P) starch phosphatase assay
Assay type: biochemical
ASSAY CONDITIONS: 33P-labeled insoluble starch, C6; read-out: IC50 phosphate release from C6 position of starch
pIC50: −log10 of the molar value.
EXPERIMENTAL ENDPOINT: pIC50

> print(dat)
                                   compound  result.number
1  O=C(Nc1ccc(Oc2ccccc2)cc1)C(=O)Nc1ccccc1NC(=O)C(c1ccccc1)S(=O)(=O)O (stereo not shown)           5.19
